This collection of values is drawn from ChEMBL document CHEMBL1154693.

Can you tell me concentration at 0.25 h for the items I'm about to list?
Test: Drug level in BALB/c mouse serum at 10 mg/kg, po after 15 mins
Format: ADME, organism-based
Set-up: dose 10 mg/kg, route oral
Conditions: read-out: Drug uptake
Answer in ng/mL, number only, no unit symbol.

Prompt: Which concentration at 0.25 h is reported for this compound? Cn1cc(C(=O)Nc2cc(Cl)c(CC(=O)N3C[C@@H](F)C[C@H]3CO[C@H]3CC[C@H](C(=O)O)CC3)cc2Cl)c2ccccc21
Response: 1880

Prompt: For Cn1cc(C(=O)Nc2cc(F)c(CC(=O)N3C[C@@H](F)C[C@H]3CO[C@H]3CC[C@H](C(=O)O)CC3)cc2Cl)c2ccccc21 then?
Response: 11400

Prompt: For Cn1cc(C(=O)Nc2ccc(CC(=O)N3C[C@@H](F)C[C@H]3CO[C@H]3CC[C@H](C(=O)O)CC3)cc2Cl)c2ccccc21 then?
Response: 5160

Prompt: For O=C(Nc1ccc(CC(=O)N2C[C@@H](F)C[C@H]2CO[C@H]2CC[C@H](C(=O)O)CC2)cc1Cl)c1c[nH]c2ccccc12 then?
Response: 193

Prompt: For O=C(Nc1cc(F)c(CC(=O)N2C[C@@H](F)C[C@H]2CO[C@H]2CC[C@H](C(=O)O)CC2)cc1Cl)c1n[nH]c2ccccc12 then?
Response: 848

Prompt: For Cc1ccccc1Nc1nc2ccc(CC(=O)N3C[C@@H](F)C[C@H]3CO[C@H]3CC[C@H](C(=O)O)CC3)c(F)c2o1 then?
Response: 363

Prompt: For Cn1cc(C(=O)Nc2cc(F)c(CC(=O)N3C[C@@H](O)C[C@H]3CO[C@H]3CC[C@H](C(=O)O)CC3)cc2Cl)c2ccccc21 then?
Response: 452

====

Experiment: Oral bioavailability in Sprague-Dawley rat at 1 mg/kg, po
Type: ADME, organism-based
Conditions: in vivo
MEASURED_ATTRIBUTE: bioavailability

Prompt: Which bioavailability is reported for this molecule? CO[C@H]1C[C@@H](CO[C@H]2CC[C@H](C(=O)O)CC2)N(C(=O)Cc2cc(Cl)c(NC(=O)c3cn(C)c4ccccc34)cc2Cl)C1
Response: > 100%

====

Experiment: Half life in cynomolgus monkey at 0.5 mg/kg, po
Type: ADME, organism-based, Macaca fascicularis
Design: dose 0.5 mg/kg, route oral
Details: in vivo
MEASURED_ATTRIBUTE: half-life (h)
Answer in h, number only, no unit symbol.

Prompt: Which half-life is reported for this compound? CO[C@H]1C[C@@H](CO[C@H]2CC[C@H](C(=O)O)CC2)N(C(=O)Cc2cc(Cl)c(NC(=O)c3cn(C)c4ccccc34)cc2Cl)C1
Response: 5.5

====

Assay: Oral bioavailability in rat
Details: in vivo
MEASURED_ATTRIBUTE: bioavailability (%)
Answer in %, number only, no unit symbol.

Prompt: Which bioavailability is reported for this compound? Cc1ccccc1Nc1nc2ccc(CC(=O)N3C[C@@H](F)C[C@H]3CO[C@H]3CC[C@H](C(=O)O)CC3)cc2o1
Response: 24

Prompt: For Cc1ccccc1NC(=O)Nc1ccc(CC(=O)N2C[C@@H](F)C[C@H]2COc2ccc(C(=O)O)cc2)cc1Cl then?
Response: 11

====

Test: Half life in cynomolgus monkey at 0.5 mg/kg, iv
Assay type: ADME, organism-based, Macaca fascicularis
Set-up: dose 0.5 mg/kg, route intravenous
Conditions: in vivo
MEASURED_ATTRIBUTE: half-life (h)
Answer in h, number only, no unit symbol.

Prompt: Which half-life is reported for this compound? CO[C@H]1C[C@@H](CO[C@H]2CC[C@H](C(=O)O)CC2)N(C(=O)Cc2cc(Cl)c(NC(=O)c3cn(C)c4ccccc34)cc2Cl)C1
Response: 6.3
